tested on: L6; assay: Cytotoxicity against rat L6 cells after 70 hrs by alamar blue assay; format: cell-based; conditions: L6, 70 h
ENDPOINT: pIC50
In plain terms, pIC50 is the concentration in mol/L turned into minus its base-10 logarithm.

Identify measured pIC50 corresponding to COc1cc([C@@H]2c3cc4c(cc3[C@H](O)[C@H]3COC(=O)[C@H]23)OCO4)cc(OC)c1OC
7.92

###

test: Selectivity index, ratio of IC50 for rat L6 cells to IC50 for bloodstream Trypanosoma brucei rhodesiense STIB 900; assay type: toxicity, cell-based; details: read-out: Ratio IC50
ENDPOINT: selectivity ratio

COc1cccc(CN2c3ccc(OC(C)=O)cc3C(C)=CC2(C)C)c1 = 91
Nc1nc(N)nc(Nc2ccc([As]3SCC(CO)S3)cc2)n1 (stereo unspecified) [MELARSOPROL] = 1000
CC(=O)Oc1ccc2c(c1)C(C)=CC(C)(C)N2Cc1ccc(C(F)(F)F)cc1 = 39
COc1cc(CN2c3ccc(OC(C)=O)cc3C(C)=CC2(C)C)cc(OC)c1 = 240
CC(=O)Oc1ccc2c(c1)C(C)=CC(C)(C)N2Cc1ccc(C)cc1 = 54
COc1cccc(COc2ccc3c(c2)C(C)=CC(C)(C)N3)c1 = 5
CC1(C)C=Cc2cc(O)ccc2N1Cc1ccccc1 = 42
CC1=CC(C)(C)N(Cc2cccc(C(F)(F)F)c2)c2ccc(OCc3cccc(C(F)(F)F)c3)cc21 = > 50

Item CC1=CC(C)(C)N(Cc2ccccc2)c2ccccc21 : provide selectivity ratio
2

For the molecule COc1ccc(COc2ccc3c(c2)C(C)=CC(C)(C)N3)cc1 , report selectivity ratio.
15

Complete the entry with selectivity ratio for CC1=CC(C)(C)N(Cc2ccccc2)c2ccc(O)cc21
970

###

tested on: Trypanosoma brucei rhodesiense; assay: Antitrypanosomal activity against bloodstream Trypanosoma brucei rhodesiense STIB 900 after 70 hrs by alamar blue assay; type: functional, organism-based; details: STIB 900, 70 h
ENDPOINT: IC50 (nM)
API: value field is a number in nM; no unit string.

CC(=O)Oc1ccc2c(c1)C(C)=CC(C)(C)N2Cc1ccc(C(F)(F)F)cc1 = 360
CCCCCCCC(=O)Oc1ccc2c(c1)C(C)=CC(C)(C)N2Cc1ccccc1 = 17
COc1cc(OC)cc(C(=O)Oc2ccc3c(c2)C(C)=CC(C)(C)N3Cc2ccccc2)c1 = 23
CC(=O)Oc1ccc2c(c1)C(C)=CC(C)(C)N2Cc1cccc(Cl)c1 = 39
CC(=O)Oc1ccc2c(c1)C(C)=CC(C)(C)N2Cc1ccc(C(C)(C)C)cc1 = 670

Find the measured IC50 of CC1=CC(C)(C)Nc2ccc(OCc3cccc(C(F)(F)F)c3)cc21 with Trypanosoma brucei rhodesiense as test system.
8800

Please tell me the measured IC50 for COc1ccccc1COc1ccc2c(c1)C(C)=CC(C)(C)N2 ; system: Trypanosoma brucei rhodesiense.
5300

Report the value of IC50 obtained on Trypanosoma brucei rhodesiense for COc1cc(CN2c3ccc(OC(C)=O)cc3C=CC2(C)C)cc(OC)c1 .
200

Tell me IC50 of CC(=O)Oc1ccc2c(c1)C(C)=CC(C)(C)N2Cc1cccc(C(F)(F)F)c1 when tested on Trypanosoma brucei rhodesiense.
41

Enter IC50 (test system Trypanosoma brucei rhodesiense) for COc1cc(OC)cc(C(=O)Oc2ccc3c(c2)C(C)=CC(C)(C)N3)c1
54

Find IC50 for COc1cc(OC)cc(C(=O)Oc2ccc3c(c2)C(C)=CC(C)(C)N3Cc2ccc(Cl)cc2)c1 on Trypanosoma brucei rhodesiense and write it down.
48

###

test system: Trypanosoma brucei rhodesiense; experiment: Antitrypanosomal activity against bloodstream Trypanosoma brucei rhodesiense STIB 900 after 70 hrs by alamar blue assay; assay type: functional, organism-based; conditions: STIB 900, 70 h
ENDPOINT: pIC50
Interpret pIC50 as the negative base-10 log of the concentration measured in mol/L.

Field: example entries. Status: answers known.
CC1=CC(C)(C)N(Cc2ccccc2)c2ccc(OC(=O)C3CCCCC3)cc21 = 7.55
CC1=CC(C)(C)N(Cc2cccc(C(F)(F)F)c2)c2ccc(OCc3cccc(C(F)(F)F)c3)cc21 = 5.44
CC(=O)Oc1ccc2c(c1)C(C)=CC(C)(C)N2Cc1cccc(C)c1 = 6.47
CC1=CC(C)(C)Nc2ccc(OC(=O)c3ccc4c(c3)OCO4)cc21 = 6.52
COc1ccc(CN2c3ccc(O)cc3C(C)=CC2(C)C)cc1 = 6.77

Note pIC50 for the compound shown: CC(=O)Oc1ccc2c(c1)C(C)=CC(C)(C)N2C
5.85

Give a short answer stating reported pIC50 for CC1=CC(C)(C)Nc2ccc(O)cc21 .
6.11

Could you please provide reported pIC50 for CC(=O)Oc1ccc2c(c1)C(C)=CC(C)(C)N2Cc1ccc(C#N)cc1 ? Thanks!
6.59
